Tested on: 621-103 (TSC2-rescued);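 note: immortalized renal angiomyolipoma cells stably carrying empty vector or TSC2, dosed in 384-well plates in DMEM, viability normalized to vehicle-treated wells within each plate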
experimental_details: relative viability vs DMSO; higher = less cytotoxic
study_conditions: 0.01 µM; serum: 10% FBS; 72 h
Structures can show the parent of a compound that is named as a salt.
attribute_measured: relative viability (%)
Answers are plain numbers, in %.

Some entries whose results are on file:
FC(F)(F)c1ccc(/C=C/c2nc(COc3ccc(CCCCn4ccnn4)cc3)co2)cc1 [Mubritinib (TAK 165)] ... 104
Cc1cc(C(C)Nc2ccccc2)c2nc(N3CCOCC3)cc(=O)n2c1 (centres undefined) [TGX-221] ... 97.7
COc1cc2c(cc1OC)C(=O)C(CC1CCN(Cc3ccccc3)CC1)C2 (centres undefined) [Donepezil HCl] ... 102
CC(C)NCC(O)c1ccc(O)c(O)c1 (centres undefined) [Isoprenaline HCl] ... 91.5
CN(c1ncccc1CNc1nc(Nc2ccc3c(c2)CC(=O)N3)ncc1C(F)(F)F)S(C)(=O)=O ... 102
COc1cc2c(Oc3ccc(NC(=O)C4(C(=O)Nc5ccc(F)cc5)CC4)cc3F)ccnc2cc1OCCCN1CCOCC1 ... 93.9
Nc1[nH]cnc2ncnc1-2 [Adenine HCl] ... 92.9
NC1=N[C@@]2(c3cc(NC(=O)c4ccc(F)cn4)ccc3F)COC[C@H]2CS1 ... 100

// input: 5 molecules below; output: relative viability for each
1. COc1ccccc1N1CCN(CCN(C(=O)C2CCCCC2)c2ccccn2)CC1
2. CS(=O)(=O)N1CCN(Cc2cc3nc(-c4cccc5[nH]ncc45)nc(N4CCOCC4)c3s2)CC1 [GDC-0941]
3. Cc1cc(C(C)(C)C)c(O)c(C)c1CC1=NCCN1 [Oxymetazoline HCl]
4. Nc1cccc2c1CN(C1CCC(=O)NC1=O)C2=O (centres undefined) [Lenalidomide]
5. CC(C)(C#N)c1cc(Cn2cncn2)cc(C(C)(C)C#N)c1 [Anastrozole (Arimidex)]

99.5
98.1
99.3
100
101

// input: 5 molecules below; output: relative viability for each
1. N#Cc1ccc(C(c2ccc(C#N)cc2)n2cncn2)cc1 [Letrozole]
2. C[S+]([O-])c1ccc(-c2nc(-c3ccc(F)cc3)c(-c3ccncc3)[nH]2)cc1 (centres undefined)
3. C=CC(=O)Nc1cccc(Sc2nc(Nc3ccc(N4CCN(C)CC4)cc3)ncc2Cl)c1 [WZ8040]
4. Cc1ccccc1-n1c(Cn2cnc3c(N)ncnc32)nc2cccc(C)c2c1=O
5. Nc1cccc2c1C(=O)N(C1CCC(=O)NC1=O)C2=O (centres undefined) [Pomalidomide]

[103, 98.6, 99.8, 98, 101]

Recall the recorded relative viability for Cc1cccc(-c2[nH]c(C(C)(C)C)nc2-c2ccc3nccnc3c2)n1 with 621-103 (TSC2-rescued) and state it.
97.6
